- Read-out: Cyclin Dependent Kinase Inhibitor 1A (CDKN1A), CDKN1A (gene 1026)
- testDescription: LTEA_HepaRG_CDKN1A: Life Technologies and Expression Analysis (LTEA) Assay for Cyclin Dependent Kinase Inhibitor 1A (CDKN1A) using HepaRG (AID 2283450)
- settings: mRNA level, 48 h; actives raise or lower the signal
- Experimental: LTEA_HepaRG is a cell based, multiplexed-readout assay that uses HepaRG, a human liver cell line, with measurements taken at 48 hours after chemical dosing on a 96-well plate.LTEA_HepaRG_CDKN1A is one of 102 assay component(s) measured in the LTEA HepaRG cell culture assay. It is a marker of Cell proliferation, survival, death.Data from the assay component LTEA_HepaRG_CDKN1A was analyzed into 1 endpoint. […]
Calls of active or inactive are those of the source. How the source made its calls: active means hit-call score of the fitted dose curve at least 0.9, where 1 is the maximum; inactive means score below 0.9.
In this exercise, the only acceptable responses are active, inactive

The following compounds have reported results that may help.
{"compound": "Cc1c(C)c2c(c(C)c1O)CCC(C)(COc1ccc(CC3SC(=O)NC3=O)cc1)O2 (stereo not given)", "assignedClass": "inactive"}
{"compound": "NC(=Nc1ccccc1)Nc1ccccc1", "assignedClass": "inactive"}
{"compound": "CN(C)C(=O)NC1(c2ccccc2)CCN(CCC[C@]2(c3ccc(Cl)c(Cl)c3)CCCN(C(=O)c3ccccc3)C2)CC1", "assignedClass": "active"}
{"compound": "CS(=O)(=O)c1ccc([C@@H](C[C@H]2CCC(=O)C2)C(=O)Nc2cnccn2)cc1Cl", "assignedClass": "inactive"}

**Q:** What was the test verdict on CC(N)=O ?
**A:** inactive

**Q:** Which outcome did this test record for the compound CCCCc1nc2cccnc2n1Cc1ccc(-c2ccccc2-c2nnn[nH]2)cc1 ?
**A:** inactive

**Q:** What outcome does the record of this test show for CC(C)OC(=O)C(C)(C)Oc1ccc(C(=O)c2ccc(Cl)cc2)cc1 ?
**A:** inactive

**Q:** Query: recorded result category for Cc1ccc(C(C)(C)C)c(O)c1 in this test
**A:** inactive

**Q:** Short answer needed: outcome of this test for CCCCCCCCCCCCCCCCO ?
**A:** inactive

**Q:** Could you please tell me the result logged for NC=O in this assay?
**A:** inactive
